experimentalTarget: Group 3 secretory phospholipase A2 (Homo sapiens)
experimentDescription: human group III sPLA2 inhibitors, confirmation, biochemical, QFRET, triplicate (AID 743280);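 note: 0% = enzyme with DMSO and 100% = DMSO wells lacking enzyme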
measurementParameters: recombinant hGIII-sPLA2, BODIPY PC-A2 QFRET fluorescence; at 12.2 µM; hits give high values
The campaign covered roughly 2,000 compounds. About 680 (34%) were called active. A selection follows.
Rule: inhibition under 30% gives 0, otherwise 1.

>>> classassignment("O=C(NNC(=S)Nc1ccc(F)cc1)[C@H]1C[C@@H]1c1ccccc1")
1
>>> classassignment("Cc1cccc(N2CCN(c3ccc(NC(=O)/C=C\\C(=O)O)cc3)CC2)c1")
0
>>> classassignment("O=C(NNC(=S)NC1CCCCC1)c1ccccc1Cl")
1
>>> classassignment("CC(=O)NC(c1cccs1)c1cc(Br)c2cccnc2c1O (stereo unspecified)")
0
>>> classassignment("S=c1[nH]nc(-c2ccco2)n1/N=C/c1ccccc1")
0
>>> classassignment("Cc1nnc(Sc2nc3c(c(=O)[nH]c(=O)n3C)n2Cc2ccccc2)s1")
0

====

experimentalTarget: Group 3 secretory phospholipase A2 (Homo sapiens) (UniProt Q9NZ20)
Sequence (Q9NZ20 whole entry, looked up): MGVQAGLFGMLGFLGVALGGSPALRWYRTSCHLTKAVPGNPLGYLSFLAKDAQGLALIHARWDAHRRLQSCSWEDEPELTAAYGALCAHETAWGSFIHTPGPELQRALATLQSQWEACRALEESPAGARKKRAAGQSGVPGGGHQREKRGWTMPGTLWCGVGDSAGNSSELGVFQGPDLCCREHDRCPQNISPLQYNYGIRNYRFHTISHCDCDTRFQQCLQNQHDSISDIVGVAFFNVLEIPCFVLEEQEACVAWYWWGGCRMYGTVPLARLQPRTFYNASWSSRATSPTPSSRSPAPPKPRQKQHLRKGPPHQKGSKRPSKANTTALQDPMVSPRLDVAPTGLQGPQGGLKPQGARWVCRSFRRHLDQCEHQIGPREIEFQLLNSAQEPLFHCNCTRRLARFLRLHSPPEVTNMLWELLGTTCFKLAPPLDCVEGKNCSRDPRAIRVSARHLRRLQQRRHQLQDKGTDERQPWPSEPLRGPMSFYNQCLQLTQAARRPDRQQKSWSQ
experimentDescription: human group III sPLA2 inhibitors, confirmation, biochemical, QFRET, triplicate (AID 743280);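 note: 0% = enzyme with DMSO and 100% = DMSO wells lacking enzyme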
measurementParameters: recombinant hGIII-sPLA2, BODIPY PC-A2 QFRET fluorescence; at 12.2 µM; hits give high values
Screen size: about 2,000 compounds; about 680 (34%) were called active. Only a sample is shown.
Decision: inhibition compared against 20%; not below it gives Satisfied, below it gives Not satisfied.

>>> classassignment("COc1cccc(NC(C)=[N+](C)CCNS(=O)(=O)c2ccc(Cl)cc2)c1")
"Not satisfied"
>>> classassignment("CCOC(=O)C1(Cc2cccc(OC)c2)CCCN(C(=O)CCSC)C1 (configuration not stated)")
"Not satisfied"
>>> classassignment("O=C(NC(=S)Nc1ncccn1)c1ccccc1Br")
"Not satisfied"
>>> classassignment("CCOc1ccc2[nH]c(=S)sc2c1")
"Satisfied"
>>> classassignment("COc1ccc(C(=O)NC(=S)NNC(=O)c2c(-c3ccccc3)noc2C)cc1")
"Satisfied"
>>> classassignment("Cc1cc(-n2nc(C)cc2C)n2ncc(-c3ccccc3)c2n1")
"Not satisfied"
>>> classassignment("CCOC(=O)NC(=O)/C(C#N)=C\\c1ccccc1")
"Not satisfied"
>>> classassignment("Nc1ccc(Nc2ccccc2)cc1")
"Not satisfied"
>>> classassignment("Cc1cccc(C)c1NC(=O)CN1C(=O)C(C)Oc2ccccc21 (configuration not stated)")
"Not satisfied"
>>> classassignment("Cn1cc(Cl)c(C(=O)NNC(=S)Nc2cccc(Cl)c2)n1")
"Satisfied"
>>> classassignment("COc1ccc(C(=O)NNC(=S)NC(=O)c2ccccc2)cc1")
"Satisfied"
>>> classassignment("C/C(=N\\Nc1ccc(Cl)nn1)c1ccccc1O")
"Not satisfied"

====

experimentalTarget: Group 3 secretory phospholipase A2 (Homo sapiens)
experimentDescription: human group III sPLA2 inhibitors, confirmation, biochemical, QFRET, triplicate (AID 743280);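 note: 0% = enzyme with DMSO and 100% = DMSO wells lacking enzyme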
measurementParameters: recombinant hGIII-sPLA2, BODIPY PC-A2 QFRET fluorescence; at 12.2 µM
The campaign covered roughly 2,000 compounds. About 680 (34%) were called active.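 Rule for the calls: active = mean inhibition across triplicates above the hit cutoff set in the earlier primary screen (cut at about 19% in these data); inactive = the rest.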 A selection follows.
Outcome codes: active, inactive

>>> classassignment("COc1ccnc(NC(=S)N2CCN(c3ncc(C(F)(F)F)cc3Cl)CC2)c1")
"inactive"
>>> classassignment("CCOC12CC(C)(C)CC(C)(CC3=C1C(=O)CC(C)(C)C3)C2 (stereo not drawn)")
"inactive"
>>> classassignment("NS(=O)(=O)c1ccc(CCNC(=O)NC2CCCCC2)cc1")
"inactive"
>>> classassignment("C/C(=N\\NC(=S)Nc1ccc(C)cc1)c1cc2ccccc2o1")
"active"
>>> classassignment("COCCCNC(=O)CNC(=S)N(Cc1cc(OC)c(OC)c(OC)c1)C1CCCC1")
"inactive"
>>> classassignment("CSc1ccc(NC(=O)/C=C/C(=O)O)cc1")
"inactive"
>>> classassignment("COCCn1c(SCC(=O)Nc2cc(OC)ccc2OC)nc2c(c1=O)SC(C)C2 (stereo not drawn)")
"inactive"
>>> classassignment("NC[C@H](Cc1ccccc1)NCCc1cc(C(F)(F)F)cc(C(F)(F)F)c1")
"active"

====

experimentalTarget: Group 3 secretory phospholipase A2 (Homo sapiens)
experimentDescription: human group III sPLA2 inhibitors, confirmation, biochemical, QFRET, triplicate (AID 743280);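 note: 0% = enzyme with DMSO and 100% = DMSO wells lacking enzyme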
measurementParameters: recombinant hGIII-sPLA2, BODIPY PC-A2 QFRET fluorescence; at 12.2 µM; hits give high values
Among all 2,000 compounds or so, about 680 (34%) were called active. The list is a sample of the results.
# binarize inhibition: threshold 10% inclusive, high side criterion met, low side criterion not met

>>> classassignment("CCc1cccc(CC)c1NC(=S)NCc1ccc2[nH]c(C)cc2c1")
"criterion not met"
>>> classassignment("NC(Cc1ccccc1)c1csc(Nc2cc(Oc3ccccc3)ncn2)n1 (stereo unspecified)")
"criterion not met"
>>> classassignment("Cc1ccc(S(=O)(=O)N2CCOCC2)cc1C(=O)NC(=S)N(Cc1ccccc1)C(C)C")
"criterion met"
>>> classassignment("CCCCOc1ccc(CSC(=N)N)cc1[N+](=O)[O-]")
"criterion met"
>>> classassignment("O=C(COc1ccc(S(=O)(=O)NCc2ccccc2)cc1)N1CCOCC1")
"criterion not met"
>>> classassignment("Cc1c(Cl)cccc1NC(=S)NCc1ccc2c(c1)OCO2")
"criterion met"
>>> classassignment("COc1cc(/C=N/n2c(C)n[nH]c2=S)ccc1OCc1ccccc1")
"criterion not met"
>>> classassignment("Cn1c2c(c(=O)n(C)c1=O)C1c3ccccc3OCC1C(C)(C)O2 (stereo unspecified)")
"criterion not met"
>>> classassignment("O=C(NNc1ccccn1)c1ccc(Cl)nc1")
"criterion met"
>>> classassignment("CC(C(=O)Nc1ccccc1-c1ccccc1)N1CCOCC1 (stereo unspecified)")
"criterion not met"
>>> classassignment("CCOc1ccc(/C=N/NC(N)=S)cc1")
"criterion met"
